Experiment: AUC (0 to infinity) in ICR mouse at 50 mg/kg, po administered as single dose by HPLC analysis
Type: ADME, organism-based
Set-up: dose 50 mg/kg, route oral, time infinity
Settings: in vivo
Endpoint Label: AUC(0-inf) (ng·h/mL)
Respond numerically; units are ng·h/mL and should not be typed.

Prompt: Endpoint output: AUC(0-inf) of O=c1nc(N2CCC(CN3CCC(C(F)(F)F)CC3)CC2)sc2c([N+](=O)[O-])cc(C(F)(F)F)cc12 . Value?
Response: 2490

* * *

Experiment: Tmax in ICR mouse at 50 mg/kg, po administered as single dose by HPLC analysis
Format: ADME, organism-based
Details: in vivo
Endpoint Label: Tmax (min)
Respond numerically; units are min and should not be typed.

Prompt: Endpoint output: Tmax of O=c1nc(N2CCC(CN3CCC(C(F)(F)F)CC3)CC2)sc2c([N+](=O)[O-])cc(C(F)(F)F)cc12 . Value?
Response: 15
